Parameter: % inhibition ApPOL 90'. Scope: all listed entries.
- experimental.system: P. falciparum apicoplast DNA polymerase (Pf-apPOL) (Plasmodium falciparum, UniProt Q8ILY1)
- Sequence (Q8ILY1 entry or part of it): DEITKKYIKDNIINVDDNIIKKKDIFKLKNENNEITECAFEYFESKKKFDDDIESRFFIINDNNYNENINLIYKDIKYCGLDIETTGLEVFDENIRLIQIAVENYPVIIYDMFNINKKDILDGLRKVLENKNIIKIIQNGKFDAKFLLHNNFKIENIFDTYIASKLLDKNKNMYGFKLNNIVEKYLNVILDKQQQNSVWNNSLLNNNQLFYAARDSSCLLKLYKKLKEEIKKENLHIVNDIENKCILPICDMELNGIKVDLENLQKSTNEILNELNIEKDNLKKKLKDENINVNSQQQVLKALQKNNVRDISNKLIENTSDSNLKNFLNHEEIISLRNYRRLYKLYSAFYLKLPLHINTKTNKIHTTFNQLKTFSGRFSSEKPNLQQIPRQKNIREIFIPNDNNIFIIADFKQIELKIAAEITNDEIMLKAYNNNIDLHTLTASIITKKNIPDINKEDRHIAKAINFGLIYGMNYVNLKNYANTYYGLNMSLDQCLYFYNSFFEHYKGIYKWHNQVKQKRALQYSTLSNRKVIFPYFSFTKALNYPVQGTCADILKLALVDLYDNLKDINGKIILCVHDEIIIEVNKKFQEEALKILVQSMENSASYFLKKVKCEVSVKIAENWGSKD
- experimental.protocol: Fluorescence-based high-throughput DNA polymerase assay (molecular beacon), primary screen and dose-response;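 note: test concentration in µM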
- Type: biochemical
- setup.conditions: DRC-2; 90'; concentration 2.5
property.label: % inhibition ApPOL 90'

1) COC(=O)c1sc(-c2ccc(C(C)(C)C)cc2)cc1NC(=O)CCC(=O)O : 9%
2) Cc1ccc(C(=O)/C=C/C=C/C=C/N(C)C)o1 : 1%
3) CCCCC(=O)N1CCc2c(nc3cc(-c4ccccc4Cl)[nH]n3c2=O)C1 : 12%
4) CCOc1cccc2cc(C(=O)Nc3nnc(-c4ccno4)o3)oc12 : 11%
5) CCCCCc1c2c(cc(O)c1C(=O)O)OC(=O)c1c(cc(OC)cc1C(=O)CCCC)O2 : 11%
6) COc1ccc(NC(=O)Cn2ccc3c(=O)[nH]ccc32)cc1Cl [Molecule 10, COc1ccc(cc1Cl)NC(=O)Cn1ccc2c1cc[nH]c2=O] : 20%
7) COc1ccc(C2CC(c3ccc(Cl)cc3Cl)Nc3nc(N)nn32)cc1OC (stereo not drawn) : 26%
8) O=C(NNC(=O)c1ccc(Cl)cc1)C(=O)NNC(=O)c1ccc(Cl)cc1 : 0.656%
9) CC(NC(=O)Cc1cc(=O)[nH]c(SCc2cccc(Cl)c2)n1)c1ccccc1 (stereo not drawn) : 0.178%
